Assignment: determine reported viability for the given compounds.
Assay: MRP1 drug-resistance reversers in H69AR cells – cell-based, doxorubicin co-treatment, pilot screen (AID 601)
Conditions: H69AR cells, CellTiter-Glo, 72 h; compound alone cytotoxicity; at 10 µM
Answers are plain numbers, in %.

Field: example entries. Status: answers known.
- COMPOUND: "CC(C)C(NC(=O)c1ccc(S(=O)(=O)N2CCOCC2)cc1)c1nc2ccccc2[nH]1 (stereo unspecified)"
  MEASURED RESULT: 82.2
- COMPOUND: "CCOC(=O)N1CCN(C(=O)CSc2nnc(COc3ccccc3)o2)CC1"
  MEASURED RESULT: 97.2
- COMPOUND: "CCCCn1c2c(c3ccccc31)CCc1nonc1-2"
  MEASURED RESULT: 103
- COMPOUND: "CCOc1ccc2nc(Nc3nc4c(c(=O)[nH]3)CCC4)nc(C)c2c1"
  MEASURED RESULT: 103
- COMPOUND: "CC(=O)NCCc1ccc(S(=O)(=O)NCc2ccc3c(c2)OCO3)cc1"
  MEASURED RESULT: 103

Quick request: viability for each listed item, please.
1. CCCCn1c(SCC(=O)OCC)nc2c1c(=O)[nH]c(=O)n2C
2. COCCNC(=O)CN1CCN(Cc2cccc(Cl)c2)C1=O
3. Cc1c(C)n(C)c2ccc(C(=O)NCc3cccs3)cc12
4. CC(C)=CC(=O)OCC(=O)NC(=O)NC(C)(C)C
5. Cc1cc(C)c(C(=O)Nc2ccc(S(=O)(=O)Nc3onc(C)c3C)cc2)c(C)c1
6. CCn1c(-c2cc(Br)ccc2O)n[nH]c1=S

1: 97.3; 2: 103; 3: 90.7; 4: 97; 5: 93.4; 6: 98
